System: A375-XP cells (Vemurafenib-resistant)
Test: Kinase inhibitor library screening, PrestoBlue cell viability, 1 or 10 μM, 72 h
Conditions: A375 XP; 10μΜ; 72 h
Structures can show the parent of a compound that is named as a salt.
measured attribute: cell viability (kinase inhibitor library screening) (%)

{"molecule": "Cc1cc(CN2CCN(c3c(Br)cnc4nc(-c5ccc(N6CCN(C)CC6)cc5)[nH]c34)CC2)no1", "quantitative readout": 0.9}
{"molecule": "CCc1cnn2c(NCc3ccc[n+]([O-])c3)cc(N3CCCC[C@H]3CCO)nc12 [Dinaciclib (SCH727965)]", "quantitative readout": 8.1}
{"molecule": "Nc1ncnc2c1c(-c1cnc3[nH]ccc3c1)nn2C1CCCC1 [PP-121, reference compound]", "quantitative readout": 4.5}
{"molecule": "CC(=O)c1c(C)c2cnc(Nc3ccc(N4CCNCC4)cn3)nc2n(C2CCCC2)c1=O.Cl [PD 0332991 (Palbociclib) HCl]", "quantitative readout": 63.1}
{"molecule": "O=C1NC(=O)[C@@H](c2cn3c4c(cccc24)CCC3)[C@@H]1c1c[nH]c2ccccc12 [ARQ 197 (Tivantinib)]", "quantitative readout": 24.5}
{"molecule": "Cc1ccc(NC(=O)c2ccc(CN3CCN(C)CC3)cc2)cc1Nc1nc(-c2cccnc2)cs1", "quantitative readout": 94.5}
{"molecule": "CCCCOc1c(C(=O)c2c(F)cc(C)cc2F)c[nH]c2nncc1-2", "quantitative readout": 71.7}
{"molecule": "CN1CC[C@H](c2c(O)cc(O)c3c(=O)cc(-c4ccccc4Cl)oc23)[C@H](O)C1 [Flavopiridol hydrochloride]", "quantitative readout": 5.1}
{"molecule": "COc1cc2c(Oc3ccc(NC(=O)C4(C(=O)Nc5ccc(F)cc5)CC4)cc3F)ccnc2cc1OCCCN1CCOCC1", "quantitative readout": 0.7}

----------
Test system: A375-XP cells (Vemurafenib-resistant)
Experiment: Kinase inhibitor library screening, PrestoBlue cell viability, 1 or 10 μM, 72 h
Conditions: A375 XP, 1μΜ; in %
measured attribute: cell viability (kinase inhibitor library screening)

{"compound": "COc1cc(Nc2ncc(F)c(Nc3ccc4c(n3)NC(=O)C(C)(C)O4)n2)cc(OC)c1OC.O=S(=O)(O)c1ccccc1", "quantitative readout": 99.5}
{"compound": "COc1cc2nccc(Oc3ccc(NC(=O)Nc4cc(C)on4)c(Cl)c3)c2cc1OC", "quantitative readout": 105.9}
{"compound": "Cc1ccc(NC(=O)c2cccc(N(C)C)c2)cc1NC(=O)c1ccc(O)cc1", "quantitative readout": 103.8}
{"compound": "Cc1ccc(C(=O)Nc2cccc(C(F)(F)F)c2)cc1Nc1nc(-c2cccnc2)nc2c1cnn2C [NVP-BHG712, reference compound]", "quantitative readout": 84.7}

----------
Listed below: Cell viability in kinase inhibitor library screening, A375 Parental, 10μΜ values for each entry.
System: A375 cells (parental)
Assay: Kinase inhibitor library screening, PrestoBlue cell viability, 1 or 10 μM, 72 h
Settings: A375 Parental, 10μΜ, 72 h
measured attribute: Cell viability in kinase inhibitor library screening, A375 Parental, 10μΜ

{"compound": "O=C1NC(=O)/C(=C/c2ccc3c(c2)OC(F)(F)O3)S1 [AS-604850]", "result": 95.5}
{"compound": "Cc1c(CN2CCN(C(=O)[C@H](C)O)CC2)sc2c(N3CCOCC3)nc(-c3cnc(N)nc3)nc12 [GDC-0980 (RG7422)]", "result": 2.2}
{"compound": "Cc1nc(NC(=O)N2CCC[C@H]2C(N)=O)sc1-c1ccnc(C(C)(C)C(F)(F)F)c1 [BYL719]", "result": 60.2}

----------
System: A375-GP cells (Dabrafenib-resistant)
Experiment: Kinase inhibitor library screening, PrestoBlue cell viability, 1 or 10 μM, 72 h
Details: A375 GP, 1μΜ, 72 h; in %
Method: After 72 h of treatment, cell viability was assessed using the PrestoBlue Cell Viability Reagent (ThermoFisher Scientific). Measurements were performed with the CLARIOstar Monochromator microplate reader (BMG Labtech). Kinase inhibitor library screening. […] Drugs were added at 2 different concentrations, 1 and 10 μM, for 72 h and cell viability was assessed using the PrestoBlue Cell Viability assay. […] Each cell line was analyzed at least in duplicate. […]
Listed below: cell viability, A375 GP, 1μΜ values for each entry.

{"compound": "COc1cc2ncnc(Nc3cccc(Cl)c3)c2cc1OC", "cell viability, A375 GP, 1μΜ": 91.6}
{"compound": "Cc1cnc(Nc2ccc(OCCN3CCCC3)cc2)nc1Nc1cccc(S(=O)(=O)NC(C)(C)C)c1 [TG101348 (SAR302503)]", "cell viability, A375 GP, 1μΜ": 89.1}
{"compound": "CC(O)C(=O)O.CC(O)C(=O)O.CN1CCN(c2ccc3nc(-c4c(N)c5c(F)cccc5[nH]c4=O)[nH]c3c2)CC1", "cell viability, A375 GP, 1μΜ": 91.8}

----------
Tested on: IGR37 cells (parental)
Test: Kinase inhibitor library screening, PrestoBlue cell viability, 1 or 10 μM, 72 h
Conditions: IGR37 Parental; 10μΜ; 72 h; in %

{"compound": "Cc1c(NC(=O)OC[C@@H]2COCCN2)cn2ncnc(Nc3ccc4c(cnn4Cc4cccc(F)c4)c3)c12", "target desc": "IGR37 cells (parental)", "cell viability, IGR37 Parental, 10μΜ": 92.5}
{"compound": "CS(=O)(=O)CCNCc1ccc(-c2ccc3ncnc(Nc4ccc(OCc5cccc(F)c5)c(Cl)c4)c3c2)o1.Cc1ccc(S(=O)(=O)O)cc1.Cc1ccc(S(=O)(=O)O)cc1 [Lapatinib Ditosylate (Tykerb)]", "target desc": "IGR37 cells (parental)", "cell viability, IGR37 Parental, 10μΜ": 92.3}
{"compound": "CCN1CCN(Cc2ccc(-c3cc4c(N[C@H](C)c5ccccc5)ncnc4[nH]3)cc2)CC1", "target desc": "IGR37 cells (parental)", "cell viability, IGR37 Parental, 10μΜ": 87.9}

----------
Tested on: A375-XP cells (Vemurafenib-resistant)
Experiment: Kinase inhibitor library screening, PrestoBlue cell viability, 1 or 10 μM, 72 h
Details: A375 XP, 10μΜ, 72 h; in %
Listed below: cell viability, A375 XP, 10μΜ values for each entry.

{"molecule": "CC(O)C(=O)O.CC(O)C(=O)O.CN1CCN(c2ccc3nc(-c4c(N)c5c(F)cccc5[nH]c4=O)[nH]c3c2)CC1", "cell viability, A375 XP, 10μΜ": 59.2}
{"molecule": "COc1cc2ncnc(Nc3ccc(F)c(Cl)c3)c2cc1NC(=O)/C=C/CN1CCCCC1", "cell viability, A375 XP, 10μΜ": 1.1}
{"molecule": "CCc1cc(Nc2nccc(-c3c(-c4ccc(OC)c(C(=O)Nc5c(F)cccc5F)c4)nc4ccccn34)n2)c(OC)cc1N1CCC(N2CCN(S(C)(=O)=O)CC2)CC1 [GSK1904529A]", "cell viability, A375 XP, 10μΜ": 97.7}
{"molecule": "CN1CCN(c2cccc(Nc3nc4c(-c5ccc(S(C)(=O)=O)cc5)cccn4n3)c2)CC1", "cell viability, A375 XP, 10μΜ": 88.6}

----------
System: A375-XP cells (Vemurafenib-resistant)
Assay: Kinase inhibitor library screening, PrestoBlue cell viability, 1 or 10 μM, 72 h
Settings: A375 XP, 1μΜ; in %
Kindly apply the following: TRUE if cell viability (kinase inhibitor library screening) is less than 40, FALSE in every other case.

{"molecule": "O=C(Cc1ccc(-c2ccc(OCCN3CCOCC3)cc2)cn1)NCc1ccccc1 [KX2-391, reference compound]", "classification": "TRUE"}
{"molecule": "C=CCn1c(=O)c2cnc(Nc3ccc(N4CCN(C)CC4)cc3)nc2n1-c1cccc(C(C)(C)O)n1 [MK-1775, reference compound]", "classification": "FALSE"}
{"molecule": "NC(=O)c1ccc(-c2nc(-c3ccc4c(c3)OCO4)c(-c3ccccn3)[nH]2)cc1", "classification": "FALSE"}
{"molecule": "CNC(=O)c1cc(Oc2ccc(NC(=O)Nc3ccc(Cl)c(C(F)(F)F)c3)cc2)ccn1", "classification": "FALSE"}
{"molecule": "COC(=O)c1ccc2c(c1)NC(=O)/C2=C(\\Nc1ccc(N(C)C(=O)CN2CCN(C)CC2)cc1)c1ccccc1", "classification": "FALSE"}

----------
System: 501Mel cells (parental)
Test: Kinase inhibitor library screening, PrestoBlue cell viability, 1 or 10 μM, 72 h
Conditions: 501Mel Parental; 1μΜ; 72 h; in %
Protocol: After 72 h of treatment, cell viability was assessed using the PrestoBlue Cell Viability Reagent (ThermoFisher Scientific). Measurements were performed with the CLARIOstar Monochromator microplate reader (BMG Labtech). Kinase inhibitor library screening. […] Drugs were added at 2 different concentrations, 1 and 10 μM, for 72 h and cell viability was assessed using the PrestoBlue Cell Viability assay. […] Each cell line was analyzed at least in duplicate. […]
Listed below: cell viability, 501Mel Parental, 1μΜ values for each entry.
measured attribute: cell viability, 501Mel Parental, 1μΜ

{"compound": "CN(C)Cc1cccc(N/C(=C2\\C(=O)Nc3cc(C(=O)N(C)C)ccc32)c2ccccc2)c1 [BIX 02189]", "measured attribute": "cell viability, 501Mel Parental, 1μΜ", "result": 89.4}
{"compound": "CCC[C@H](NC(=O)/C(C#N)=C/c1cccc(Br)n1)c1ccccc1 [WP1130, reference compound]", "measured attribute": "cell viability, 501Mel Parental, 1μΜ", "result": 93.7}
{"compound": "COc1cc2ncnc(Nc3ccc(O)c(Br)c3)c2cc1OC [WHI-P154]", "measured attribute": "cell viability, 501Mel Parental, 1μΜ", "result": 97.4}
{"compound": "COc1cccc(-c2cc(=O)c3ccccc3o2)c1N [PD98059]", "measured attribute": "cell viability, 501Mel Parental, 1μΜ", "result": 98.8}
{"compound": "C=CC(=O)Nc1cc2c(Nc3ccc(F)c(Cl)c3)ncnc2cc1OCCCN1CCOCC1 [CI-1033 (Canertinib)]", "measured attribute": "cell viability, 501Mel Parental, 1μΜ", "result": 103.3}
{"compound": "O=C1NC(=O)C(c2ccccc2[N+](=O)[O-])=C1Nc1ccc(O)c(Cl)c1 [SB 415286]", "measured attribute": "cell viability, 501Mel Parental, 1μΜ", "result": 94.3}

The measured values listed here are drawn from paper PMC6364417.
